Hey, just so you know, these numbers are from patent US20180042899A1.

# Target: AHR^d (Mus musculus, UniProt P30561, A375V)
# Sequence (P30561 10-848 A375V): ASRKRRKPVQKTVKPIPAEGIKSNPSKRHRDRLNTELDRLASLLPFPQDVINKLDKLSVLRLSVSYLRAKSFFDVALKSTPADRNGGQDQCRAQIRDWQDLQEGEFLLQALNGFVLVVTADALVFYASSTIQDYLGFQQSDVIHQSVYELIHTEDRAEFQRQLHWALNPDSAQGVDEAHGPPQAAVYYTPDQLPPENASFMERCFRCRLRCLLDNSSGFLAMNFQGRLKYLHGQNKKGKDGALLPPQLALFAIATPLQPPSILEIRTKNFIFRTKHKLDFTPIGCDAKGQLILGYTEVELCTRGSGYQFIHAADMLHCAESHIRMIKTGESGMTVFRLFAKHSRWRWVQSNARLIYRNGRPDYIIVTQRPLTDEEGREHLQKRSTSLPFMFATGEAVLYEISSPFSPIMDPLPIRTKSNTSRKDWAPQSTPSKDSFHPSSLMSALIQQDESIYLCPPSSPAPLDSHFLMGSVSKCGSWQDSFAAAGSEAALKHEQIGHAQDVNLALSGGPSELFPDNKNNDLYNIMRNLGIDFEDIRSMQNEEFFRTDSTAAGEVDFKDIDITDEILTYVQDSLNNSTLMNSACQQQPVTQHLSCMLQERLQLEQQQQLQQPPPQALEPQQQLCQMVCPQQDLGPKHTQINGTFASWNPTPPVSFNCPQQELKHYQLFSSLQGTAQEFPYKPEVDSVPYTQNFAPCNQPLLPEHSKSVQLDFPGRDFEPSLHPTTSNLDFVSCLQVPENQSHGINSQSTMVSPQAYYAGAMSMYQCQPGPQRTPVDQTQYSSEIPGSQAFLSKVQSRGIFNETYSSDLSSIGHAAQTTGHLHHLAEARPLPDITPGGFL
# Sequence (P11499 whole entry partner): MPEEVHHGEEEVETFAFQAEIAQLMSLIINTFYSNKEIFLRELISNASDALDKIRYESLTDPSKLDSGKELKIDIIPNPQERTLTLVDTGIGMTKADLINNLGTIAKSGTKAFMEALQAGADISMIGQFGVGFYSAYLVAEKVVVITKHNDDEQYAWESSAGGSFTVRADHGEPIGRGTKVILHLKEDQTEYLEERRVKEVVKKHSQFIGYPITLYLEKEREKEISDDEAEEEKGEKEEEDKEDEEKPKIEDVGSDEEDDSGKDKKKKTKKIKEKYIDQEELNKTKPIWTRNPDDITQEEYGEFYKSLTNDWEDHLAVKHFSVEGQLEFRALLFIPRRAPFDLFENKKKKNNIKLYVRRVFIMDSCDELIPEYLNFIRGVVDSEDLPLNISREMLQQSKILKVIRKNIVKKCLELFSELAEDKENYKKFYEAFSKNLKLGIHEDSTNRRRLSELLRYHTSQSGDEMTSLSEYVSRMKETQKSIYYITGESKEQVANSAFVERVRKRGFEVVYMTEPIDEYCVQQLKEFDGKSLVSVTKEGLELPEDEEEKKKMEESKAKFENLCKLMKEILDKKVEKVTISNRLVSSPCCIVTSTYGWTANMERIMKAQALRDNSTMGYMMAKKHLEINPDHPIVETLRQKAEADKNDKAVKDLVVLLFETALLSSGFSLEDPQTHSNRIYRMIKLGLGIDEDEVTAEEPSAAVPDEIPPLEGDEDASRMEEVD
# Assay Explanation: CYP1A1 mRNA (qPCR) in splenocytes of AHR^d congenic mice
pEC50: −log10 of the molar value.
Endpoint: pEC50

>>> recorded_measurement("Clc1cc2c(cc1Cl)Oc1cc(Cl)c(Cl)cc1O2")
8.72

* * *

# Target: wild-type AHR (AHR^b) (Mus musculus, UniProt P30561, M589L/N533S/P471L)
# Sequence (P30561 10-805 P471L/N533S/M589L): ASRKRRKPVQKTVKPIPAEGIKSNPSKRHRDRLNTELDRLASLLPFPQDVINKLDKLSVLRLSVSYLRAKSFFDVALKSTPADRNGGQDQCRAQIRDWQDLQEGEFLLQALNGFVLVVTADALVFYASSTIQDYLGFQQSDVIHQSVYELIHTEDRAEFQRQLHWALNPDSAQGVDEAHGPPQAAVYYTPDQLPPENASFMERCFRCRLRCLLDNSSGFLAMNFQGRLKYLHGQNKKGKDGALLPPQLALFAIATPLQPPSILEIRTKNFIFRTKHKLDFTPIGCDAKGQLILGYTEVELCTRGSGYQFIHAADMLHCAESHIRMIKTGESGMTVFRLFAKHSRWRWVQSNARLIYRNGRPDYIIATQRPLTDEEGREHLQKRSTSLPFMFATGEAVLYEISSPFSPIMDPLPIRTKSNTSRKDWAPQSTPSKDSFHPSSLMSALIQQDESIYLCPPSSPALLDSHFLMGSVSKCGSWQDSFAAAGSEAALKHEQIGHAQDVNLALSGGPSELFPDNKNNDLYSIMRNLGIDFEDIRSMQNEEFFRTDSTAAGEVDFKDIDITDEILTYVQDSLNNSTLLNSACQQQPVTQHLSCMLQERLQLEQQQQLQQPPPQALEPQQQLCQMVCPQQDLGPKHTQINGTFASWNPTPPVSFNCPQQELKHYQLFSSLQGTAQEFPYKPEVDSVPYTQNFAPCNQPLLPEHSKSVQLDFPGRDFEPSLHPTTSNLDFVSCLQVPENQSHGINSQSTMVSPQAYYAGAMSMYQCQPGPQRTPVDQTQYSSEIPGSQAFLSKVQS
# Assay Explanation: DRE-luciferase in COS-1 cells transfected with wild-type mAHR
Endpoint: EC50

>>> recorded_measurement("Clc1cc2c(cc1Cl)Oc1cc(Cl)c(Cl)cc1O2")
"0.73 nM"
